The reported measurements were obtained from patent US8575197B2.

pIC50 reference
Molecular target: human P2X3 receptor (Homo sapiens (Human))
Sequence (P56373 whole entry): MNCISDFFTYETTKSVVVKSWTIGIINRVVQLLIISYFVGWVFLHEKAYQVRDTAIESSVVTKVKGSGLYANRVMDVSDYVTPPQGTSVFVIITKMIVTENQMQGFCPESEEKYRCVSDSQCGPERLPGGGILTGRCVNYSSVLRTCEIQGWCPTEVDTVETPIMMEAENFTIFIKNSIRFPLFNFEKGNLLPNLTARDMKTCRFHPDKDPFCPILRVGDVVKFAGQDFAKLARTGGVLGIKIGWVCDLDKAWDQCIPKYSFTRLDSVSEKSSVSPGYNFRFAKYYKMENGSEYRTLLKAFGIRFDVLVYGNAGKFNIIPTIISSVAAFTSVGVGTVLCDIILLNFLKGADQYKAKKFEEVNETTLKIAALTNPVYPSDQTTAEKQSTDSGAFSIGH
Experiment: P2X3 receptor inhibition, ATP-evoked Fluo-3 calcium fluorescence (FDSS 3000)
Format: cell-based
Settings: C6BU-1 cell transfected with human P2X3 receptor gene; ATP-evoked Fluo-3 fluorescence
Convention used: pIC50 is expressed as -log10 of the molar concentration.

Worked set:
COc1ccccc1C1C(S(=O)(=O)C(C)C)=C(O)C(=O)N1c1ccc(-c2ccc(C)o2)cc1 (stereo not shown) :: 6.54
COCCOc1ncccc1C1c2c(C(C)(C)C)n[nH]c2C(=O)N1c1ccc(-c2cccs2)cc1 (stereo not shown) :: 8.22
CC(C)C(=O)C1=C(O)C(=O)N(c2ccc(-c3ccsc3)cc2)C1c1ccccc1C(=O)N(C)C (stereo not shown) :: 7.33
COCCOc1ccccc1C1C(C(=O)C(C)C)=C(O)C(=O)N1c1ccc(-c2csc(C)n2)cc1 (stereo not shown) :: 6.28
COCCN(C)C(=O)c1ccccc1C1C(C(=O)CC(C)C)=C(O)C(=O)N1c1ccc(-c2ccc(C)o2)cc1 (stereo not shown) :: 7.26

Requested field: pIC50. Item: CN(C)c1ccccc1C1C(C(=O)C(C)(C)C)=C(O)C(=O)N1c1ccc(-c2ccon2)cc1 (stereo not shown)
6.28

Requested field: pIC50. Item: COc1ccc(F)cc1C1C(C(=O)C(C)C)=C(O)C(=O)N1c1ccc(-c2ccsc2)cc1 (stereo not shown)
7.59
